Assign polymerase ribozyme fitness (log ratio) to each entry below.
B1: TPR t1 (parent)
chain: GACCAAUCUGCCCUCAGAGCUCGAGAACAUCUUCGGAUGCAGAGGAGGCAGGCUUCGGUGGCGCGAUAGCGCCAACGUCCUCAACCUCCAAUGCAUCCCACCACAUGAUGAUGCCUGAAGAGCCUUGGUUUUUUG

Variants of: B1
experiment-description: polymerase ribozyme fitness, log enrichment relative to wild type (log ratio); higher = more active; in vitro selection for triplet polymerase activity
// return just the number, without any unit appended

Form field: reported polymerase ribozyme fitness (log ratio) of GACCAAUCUGCCCUCAGAGCUCGAGAACAUCUUCGGAUGCAAAGGAGGCAGGCUUCGGUGGCGCGAUAGCGCCAACGUCCUCUACCUCCAAUGCAUCCCACCACAUGAUGAUGCCUGAAGAGCCUUGGUUUUUUG [G42A A83U] -2.65

Entry GACCAAUCUGCCCUCAGAGCUCGAGAACAUCUUCGGAUGCAGAGGAGGCAGGCUCCGGUGGCGCGAUAGCGCCAACGUCCUCAACCUUCAAUGCAUCCCACCACAUGAUGAUGCCUGAAGAGCCUUGGUUUUUUG [U55C C88U] please -0.394

Entry GACCAAUCUGCCCUCAGAGCUCGAGAACAUCUUCGGAUGCAGAUGAGGCAGGCCUCGGUGGCGUGAUAGCGCCAACGUCCUCAACCUCCAAUGCAUCCCACUACAUGAUGAUACCUGAAGAGCCUUGUUUUUUUG [G44U U54C C64U C102U G113A G128U] please -6.53

Entry GACCAAUCGGCCCUAAGAGCUCGAGAACAUCUUCGGAUGCAGAGGAGGCAGGCUUCGAUGGCGCGAUAGCGCCAACGUCCUCAACCUCCAAUGCAUUCCACCACAUGAUGAUGCCGGAAGAGCCUUGGGUUUUUG [U9G C15A G58A C97U U116G U129G] please -5.21

Entry GACCAAUCUGCUCUCAGAGCUCGAGAACAUCUUCGGAUGCAGAGGAGGCAGGCUUCGGUGUCGCGAUAGCGCCAACGUCCUCAACCUCCAAUGCAUCCCACCACUUGAUGAUGCCUGAAGAGCCUUGGUUUUUUG [C12U G61U A105U] please -1.42

Entry GACCAAUCAGCCCUCAGAGCUUGAGAACAUCUUCGGAUGCAGAGGAGGCAGGCUUCGGUGGCGCGAUAGCGCCAACGUCCUCAACCUCCAAUGCAUCCCACCACAUGAUGAUGCCUGAAGAGCCUUGGUUUUUUG [U9A C22U] please -3.34

Entry GACCAAUCUGCCUUCAGCGCUCGAGAACAUCUUCGGCUGCAGAGGAGGUAGGCUUCGGUGGCGCGAUAGCGCCAACGUCCUCAACCUCCAAUGCAUCCCACCACAUGAUGAUGCCUGAAGCGCCUUGGUUUUUUG [C13U A18C A37C C49U A121C] please -2.39

Entry GACCAAUCUGCCCUCAGAGCUCGAGAACAUCUUCGGAUGCAGAGGAGGCAGGCUUCGGUGGCGCGAUAGCGCCAACGUCCUCAACCCCCAAUGCAUCCCACCACAUUAUGAUGCCUGAAGAGCCUUGGUUUUUUG [U87C G107U] please -4.55

Entry GACCAAUCUGCCCUCAGAGCUCGUGAACAUCUUCGGAUGCAGAGGAGGCAGGCUUCGGUGUCGCGAUAGCGCCAACGUCCUCAACCUCCAGUGCAUCCCACCACAUGAUGAUGCCUGAAUAGCUUUGGUUUUUUA [A24U G61U A91G G120U C124U G135A] please -6.15

Entry GACUAAUCUGCCCUCAGAGCUCGAGAACAUCUUCGGUAGCAGAGGGGGCGGGCUUCGGUGGCGCGAUAGCGCCAACGUCCUCAACCUCCAAUGCAUCCCACCACAUGAUGAUGCCUGAAGAGCCUUGGUUUUUUG [C4U A37U U38A A46G A50G] please -2.72

Entry GACCAAUCUGCCCUCAGAGCUCGAGAACAUCUUCGGAUGCAGAGGUGGCAGGCUUCGGUGGCGCGGUAGCGCCAACAUCCUCAACCUCCAAUGCAUCCCACCACAUGAUGAUGCCUGAAGAGCCUUGGUUUUUUG [A46U A66G G77A] please -1.99

Entry GACCAAUCUGCCCUCAGAGCUCGAGAACAUCUUAGGAUGCAGAGGAGGCAGGCUUCGGUGGUGCGAUAGCGCCAACGUCCUCAACCUCCAAUGCAUCCCACCACAUGAUGAUGCCUGAAGAGCCUUGGUUUUUUG [C34A C62U] please -2.79

Entry GACCAAUCUGCCCUCAGAGCUCGAGAACAUCUUCGGAUGCAGAGGAGGCAGGCUUCGGUGGAGCGAUAGCGCCAACGUACUCAACCUCCAAUGCAUCCCACCACAUGAUGAUGCCUGAAGAGCCUUGGUUUUUUG [C62A C79A] please -3.89

Entry GACCAAUGUGCCCUCAGAGCUCGAGAACAUCUUCGGAUACAGAGGAGGCAGGCUUCGGUGGCGCGAUAGCGCCAACGUCCUCAACCUCCAAUGCAUCCCACCACAUGAUGAUGCCUUAAGAGCCUUGGUUUAUUG [C8G G39A G117U U132A] please 0.363

Entry GACCCAUCUGCCCUCAGAGCUCGAGAACAUCUUCGGAUGCAGAGGAGGCAGGCUUGGGUGGCGCGAUAGCGCCAACGUCCUCAACCUCCAAUGCAUCCCACCACAUGAUGAUGCCUGAAGAGCCUUGGUUUUUUG [A5C C56G] please -1.73

Entry GACCAAUCUGCCCUCAGAGCUCGAGAACAUCUUCGGAUGCAGAGUAGGCAGGCUUCGGUGGCGCGAUAGCACCAACGUCCUCAACCUCCAAUGCAUCCCACCACAUGAUGAUGCCUGAAGAGCCUUGGUUUUUUG [G45U G71A] please -2.09

Entry GACCAAUCUGACCUCAGAGCUCGAGAACAUCUUCGGAUGCAGAGGAGGCAGGCUUCGGUGGCGCGAUAGCGCCAACGUCCUCACUCACGAAUGCAUCCCACCACAUGAUGAUGCCUGAAGAGCAUUGGUUUUUUG [C11A A84C C85U U87A C89G C124A] please -4.77

Entry GACCAAUCUGCCCUCAGAGCUCGAGAACAUCUUCGGAUGCAGAGGAGGCAGGCUUAGGUGGCGCGAUAGCGCCAACGUCCUCGACCUCCAAUGCAUCCCACCACAUGAUGAUGCCUGAAGAGCCUUGGUUUUUUG [C56A A83G] please -1.6

Entry GACCAAUCUGCCCUCAGAGCUCGAGAACAUCUUCGGAUGCAGAGGAGGGAGGCUUCGGUGGCGCGAUAGCGCCAACGUCCUCAAACUCCAAUGCAUCCCACCACAUGAUGAUUCCUGAAGAGCCUUGGUUUUUUG [C49G C85A G113U] please -4.81

Entry GACCAAUCUGCCCUCAGAGCUCGAGAACAUCUUCGGAUGCAGAGCAGGCAGGCUUCGGUGGCGCGAUAGCGCCAACGUCCUCAACGUCCAAUGCAUCCCACUACAUGAUGAUGCCUGAAUAGCCUUGGUUUUUUG [G45C C86G C102U G120U] please -7.48

Entry GACCAAUCUGCCCUCAGAGCUCGAGAACAUCUUCGGAUGCAGAGGAGGCAGGCUUCGGUGGCGCGAUAGCGACAACGUCCUCAACCACCAAUGCAUCCCACCACAUGAUGAUGCCUGAAGAGCCUUGGUUUUUUG [C72A U87A] please 0.169

Entry GACCAAUCUGCCCUCAGAGCUCGAGAACAUCUUCGGAAGCAGAGGAGGCAGGCUUCGGUGGCGCGAUAGCGCCAACGUCCUCAACGUCCAAUGCAUCCCACCACAUGAUGAUGCCUGUAGAGCCUUGGUUUUUUG [U38A C86G A118U] please -1.76

Entry GACCAAUCUGCCCUCAGAGCUCGAGAACAUCUUCGGAUGCAGAGGAGGCAGGCUUCGGUGGUGCGAUAGCGCCAACGUCCUCAACCUCCAAUGCAUCGCACCACAUGAUGAUGCCUCAAGAGCCUUGAUUUUCUG [C62U C98G G117C G128A U133C] please -5.87
